- target.entity: T1, HLA-A*01:01 (human)
- T1 construct: Peptide-receptive MHC monomer made by UV cleavage of a UV-sensitive peptide
- assay.procedure: UV-ligand exchange, anti-b2m ELISA; exchange yield grade (+ >10%, ++ >20%, +++ >50, ++++ >75%)
Each entry below carries its reported peptide exchange yield.
reported.endpoint: peptide exchange yield

[
  {
    "binder": "YTERDGSAMVY",
    "reported.endpoint": "peptide exchange yield",
    "test.result": "50 to 75%"
  },
  {
    "binder": "VLDLSTNVY",
    "reported.endpoint": "peptide exchange yield",
    "test.result": "50 to 75%"
  },
  {
    "binder": "NSDLKYNAL",
    "reported.endpoint": "peptide exchange yield",
    "test.result": "20 to 50%"
  },
  {
    "binder": "LDSHIHAY",
    "reported.endpoint": "peptide exchange yield",
    "test.result": "10 to 20%"
  },
  {
    "binder": "ITFGERFEY",
    "reported.endpoint": "peptide exchange yield",
    "test.result": "50 to 75%"
  },
  {
    "binder": "LSLIDRLVLY",
    "reported.endpoint": "peptide exchange yield",
    "test.result": "20 to 50%"
  },
  {
    "binder": "LTDYLKNTY",
    "reported.endpoint": "peptide exchange yield",
    "test.result": "50 to 75%"
  },
  {
    "binder": "RSPNNFLSY",
    "reported.endpoint": "peptide exchange yield",
    "test.result": "20 to 50%"
  },
  {
    "binder": "LTDYINANY",
    "reported.endpoint": "peptide exchange yield",
    "test.result": "50 to 75%"
  },
  {
    "binder": "EVLDSHIHAY",
    "reported.endpoint": "peptide exchange yield",
    "test.result": "10 to 20%"
  },
  {
    "binder": "YTDKLQHY",
    "reported.endpoint": "peptide exchange yield",
    "test.result": "50 to 75%"
  },
  {
    "binder": "SILGSDVRVPSY",
    "reported.endpoint": "peptide exchange yield",
    "test.result": "20 to 50%"
  },
  {
    "binder": "TLEQVQLYY",
    "reported.endpoint": "peptide exchange yield",
    "test.result": "50 to 75%"
  },
  {
    "binder": "SVTDLEMPHY",
    "reported.endpoint": "peptide exchange yield",
    "test.result": "10 to 20%"
  },
  {
    "binder": "YSHAAGQGTGLY",
    "reported.endpoint": "peptide exchange yield",
    "test.result": "50 to 75%"
  },
  {
    "binder": "LSAGSGPGQY",
    "reported.endpoint": "peptide exchange yield",
    "test.result": "50 to 75%"
  }
]
